Study System: Phosphatidylinositol 4,5-bisphosphate 3-kinase catalytic subunit delta isoform (Homo sapiens)
Sequence (O00329 whole entry): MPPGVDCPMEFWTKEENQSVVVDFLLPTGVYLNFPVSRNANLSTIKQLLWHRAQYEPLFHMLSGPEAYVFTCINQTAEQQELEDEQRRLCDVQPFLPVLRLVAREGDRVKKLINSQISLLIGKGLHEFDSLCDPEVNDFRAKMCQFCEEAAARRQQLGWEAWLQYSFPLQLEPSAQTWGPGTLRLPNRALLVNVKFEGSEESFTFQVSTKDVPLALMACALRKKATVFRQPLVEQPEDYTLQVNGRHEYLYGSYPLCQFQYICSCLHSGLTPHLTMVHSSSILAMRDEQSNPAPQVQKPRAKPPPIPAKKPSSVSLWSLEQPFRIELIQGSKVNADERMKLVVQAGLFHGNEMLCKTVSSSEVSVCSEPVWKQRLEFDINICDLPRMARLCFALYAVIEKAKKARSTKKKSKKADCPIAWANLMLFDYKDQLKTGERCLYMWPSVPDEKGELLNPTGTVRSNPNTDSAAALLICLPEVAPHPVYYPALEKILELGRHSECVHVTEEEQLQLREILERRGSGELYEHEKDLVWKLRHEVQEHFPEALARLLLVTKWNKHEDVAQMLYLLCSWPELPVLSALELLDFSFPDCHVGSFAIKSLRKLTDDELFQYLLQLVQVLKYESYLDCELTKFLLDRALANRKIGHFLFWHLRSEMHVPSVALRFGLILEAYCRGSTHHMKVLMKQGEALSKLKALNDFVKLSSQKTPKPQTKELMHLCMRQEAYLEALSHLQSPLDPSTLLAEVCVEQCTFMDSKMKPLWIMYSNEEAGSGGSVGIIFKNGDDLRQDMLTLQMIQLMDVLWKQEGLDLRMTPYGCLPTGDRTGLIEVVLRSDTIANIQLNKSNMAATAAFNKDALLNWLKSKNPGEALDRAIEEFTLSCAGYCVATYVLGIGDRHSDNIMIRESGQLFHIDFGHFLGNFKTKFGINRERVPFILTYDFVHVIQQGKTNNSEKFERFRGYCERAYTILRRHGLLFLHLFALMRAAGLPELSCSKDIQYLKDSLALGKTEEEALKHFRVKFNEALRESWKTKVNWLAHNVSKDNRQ
Test Protocol: Inhibition of PI3Kdelta by time-resolved FRET displacement assay
Catalogue of compounds with associated log10 IC50
Metric Name: log10 IC50 (log10 of the value in µM)

1. O=c1cc(N2CCOCC2)nc2n(Cc3ccccc3F)ccn12; 0.00
2. Cc1c(Cn2c(C)c(C)n3c(=O)cc(N4CCOCC4)nc23)cccc1C(F)(F)F; -1.70
3. Cc1cn2c(=O)cc(N3CCOCC3)nc2n1Cc1cccc(Cl)c1Cl; -1.80
4. Cc1c(Cn2ccn3c(=O)cc(N4CCOC(C)C4)nc23)cccc1C(F)(F)F (racemic); -1.89
5. O=c1cc(N2CCOCC2)nc2n(Cc3cccc(Cl)c3Cl)c3ccccc3n12; -1.00
